Test system: Streptococcus pneumoniae
assayInfo: Antibacterial activity against penicillin intermediate Streptococcus pneumoniae clinical isolate by broth microdilution method
Format: functional
The following molecules are listed with their measured MIC50 values.
Unit µg/mL implied. Number only.

What MIC50 value was documented for this molecule, `CCCCCCCCCC(=O)N[C@@H](Cc1c[nH]c2ccccc12)C(=O)N[C@H](CC(N)=O)C(=O)N[C@@H](CC(=O)O)C(=O)N[C@@H]1C(=O)NCC(=O)N[C@@H](CCCN)C(=O)N[C@@H](CC(=O)O)C(=O)N[C@H](C)C(=O)N[C@@H](CC(=O)O)C(=O)NCC(=O)N[C@H](CO)C(=O)N[C@@H]([C@H](C)CC(=O)O)C(=O)N[C@@H](CC(=O)c2ccccc2N)C(=O)O[C@@H]1C` ? 0.12

---

Tested on: Streptococcus agalactiae
assayInfo: Antibacterial activity against Streptococcus agalactiae group B clinical isolate by broth microdilution method
Format: functional
quantityMeasured: MIC50
Report field: quantity (unit follows the number).

compound | observedMeasurement
CCCCCCCCCC(=O)N[C@@H](Cc1c[nH]c2ccccc12)C(=O)N[C@H](CC(N)=O)C(=O)N[C@@H](CC(=O)O)C(=O)N[C@@H]1C(=O)NCC(=O)N[C@@H](CCCN)C(=O)N[C@@H](CC(=O)O)C(=O)N[C@H](C)C(=O)N[C@@H](CC(=O)O)C(=O)NCC(=O)N[C@H](CO)C(=O)N[C@@H]([C@H](C)CC(=O)O)C(=O)N[C@@H](CC(=O)c2ccccc2N)C(=O)O[C@@H]1C | 0.25 µg/mL
CC(=O)NC[C@H]1CN(c2ccc(N3CCOCC3)c(F)c2)C(=O)O1 [LINEZOLID] | 1 µg/mL
CCC[C@@H]1C[C@@H](C(=O)N[C@@H]([C@H]2O[C@H](SC)[C@H](O)[C@@H](O)[C@H]2O)[C@H](C)Cl)N(C)C1 [CLINDAMYCIN] | 0.06 µg/mL

So what MIC50 did CC[C@H]1OC(=O)[C@H](C)C(=O)[C@H](C)[C@@H](O[C@@H]2O[C@H](C)C[C@H](N(C)C)[C@H]2O)[C@](C)(OC)C[C@@H](C)C(=O)[C@H](C)[C@H]2N(CCCCn3cnc(-c4cccnc4)c3)C(=O)O[C@]12C [TELITHROMYCIN] get with Streptococcus agalactiae? 0.015 µg/mL

---

System: Streptococcus pneumoniae
assayInfo: Antibacterial activity against multidrug-resistant Streptococcus pneumoniae clinical isolate by broth microdilution method
Type: functional
quantityMeasured: MIC50 (µg/mL)
Unit µg/mL implied. Number only.

querySmiles | resultUnits | observedMeasurement
CCCCCCCCCC(=O)N[C@@H](Cc1c[nH]c2ccccc12)C(=O)N[C@H](CC(N)=O)C(=O)N[C@@H](CC(=O)O)C(=O)N[C@@H]1C(=O)NCC(=O)N[C@@H](CCCN)C(=O)N[C@@H](CC(=O)O)C(=O)N[C@H](C)C(=O)N[C@@H](CC(=O)O)C(=O)NCC(=O)N[C@H](CO)C(=O)N[C@@H]([C@H](C)CC(=O)O)C(=O)N[C@@H](CC(=O)c2ccccc2N)C(=O)O[C@@H]1C | µg/mL | 0.12

What MIC50 value was documented for this molecule, `CO/N=C(\C(=O)N[C@@H]1C(=O)N2C(C(=O)O)=C(CSc3nc(=O)c(O)nn3C)CS[C@H]12)c1csc(N)n1` ? 1

What MIC50 value was documented for this molecule, `CC[C@H]1OC(=O)[C@H](C)C(=O)[C@H](C)[C@@H](O[C@@H]2O[C@H](C)C[C@H](N(C)C)[C@H]2O)[C@](C)(OC)C[C@@H](C)C(=O)[C@H](C)[C@H]2N(CCCCn3cnc(-c4cccnc4)c3)C(=O)O[C@]12C` ? 0.06

What MIC50 value was documented for this molecule, `CN[C@H](CC(C)C)C(=O)N[C@H]1C(=O)N[C@@H](CC(N)=O)C(=O)N[C@H]2C(=O)N[C@H]3C(=O)N[C@H](C(=O)N[C@H](C(=O)O)c4cc(O)cc(O)c4-c4cc3ccc4O)[C@H](O)c3ccc(c(Cl)c3)Oc3cc2cc(c3O[C@@H]2O[C@H](CO)[C@@H](O)[C@H](O)[C@H]2O[C@H]2C[C@](C)(N)[C@H](O)[C@H](C)O2)Oc2ccc(cc2Cl)[C@H]1O` ? 0.25

What MIC50 value was documented for this molecule, `CCC[C@@H]1C[C@@H](C(=O)N[C@@H]([C@H]2O[C@H](SC)[C@H](O)[C@@H](O)[C@H]2O)[C@H](C)Cl)N(C)C1` ? 0.06

What MIC50 value was documented for this molecule, `CC(=O)NC[C@H]1CN(c2ccc(N3CCOCC3)c(F)c2)C(=O)O1` ? 1

What MIC50 value was documented for this molecule, `CCCCCCCCCCNCCN[C@@]1(C)C[C@H](O[C@H]2[C@H](Oc3c4cc5cc3Oc3ccc(cc3Cl)[C@@H](O)[C@@H](NC(=O)[C@@H](CC(C)C)NC)C(=O)N[C@@H](CC(N)=O)C(=O)N[C@H]5C(=O)N[C@H]3C(=O)N[C@H](C(=O)N[C@H](C(=O)O)c5cc(O)c(CNCP(=O)(O)O)c(O)c5-c5cc3ccc5O)[C@H](O)c3ccc(c(Cl)c3)O4)O[C@H](CO)[C@@H](O)[C@@H]2O)O[C@@H](C)[C@H]1O` ? 0.015
